Test system: ATR-driven phosphorylation of Chk1 kinase at Serine 345 in HT-29 colorectal adenocarcinoma cells
Experiment: pCHK1 cellular assay (CHK1 p-Ser345 AlphaScreen SureFire)
Assay type: cell-based
Conditions: Homo sapiens, HT-29, HT-29 cells, 4-nitroquinoline N-oxide 12 uM; read-out: Cell IC50 (pCHK1 IC50 values)
reported.endpoint: log10 IC50 (log10 of the value in nM)
For clarity, the numbers are log10 values of IC50 expressed in nM.

Kindly give each listed record's log10 IC50.
1. COC(=O)[C@@H]1CCCN(c2ncnc3c2CN(c2cc(Cl)nc4[nH]ccc24)[C@H](C)C3)C1
2. CC1Cc2ncnc(-c3cccc(S(C)(=O)=O)c3)c2CN1c1ccnc2[nH]ccc12 (centres unmarked)
3. C[C@@H]1Cc2ncnc(C3CCN(S(C)(=O)=O)CC3)c2CN1c1nccc2[nH]ccc12
4. C[C@@H]1Cc2ncnc(C3=CCC(NS(C)(=O)=O)CC3)c2CN1c1cc(Cl)nc2[nH]ccc12 (some centres unmarked)
5. C[C@@H]1Cc2ncnc(C3CCCN(S(C)(=O)=O)C3)c2CN1c1ccnc2[nH]ccc12 (some centres unmarked) [Example 16]

2.14
2.18
2.74
1.26
2.15

Reference source: patent US10421765B2
